biological target: His-tagged KRAS G12D protein (Homo sapiens, UniProt P01116, G12D); test: KRAS G12D TR-FRET Assay; format: binding; settings: TR-FRET; read-out: KRAS G12D Binding IC50
Sequence (P01116 1-188 isoform P01116-2 G12D): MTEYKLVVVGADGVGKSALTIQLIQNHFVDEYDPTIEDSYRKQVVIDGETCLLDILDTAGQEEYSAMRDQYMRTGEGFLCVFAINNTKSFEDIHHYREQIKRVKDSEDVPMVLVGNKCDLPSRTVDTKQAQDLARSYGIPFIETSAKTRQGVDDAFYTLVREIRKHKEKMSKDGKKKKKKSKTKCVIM
measured.metric: log10 of IC50 (log10 of the value in nM)
Heads up: the numbers are on a log10 scale; they represent IC50 in nM.

Please review the following examples before continuing.
compound	measured.metric	numeric.result
Fc1c2ncc3c(nc(OC[C@@]45CCCN4C[C@H](F)C5)nc13)N1CCC[C@@H](C1)c1cnc(o1)CCCc1c(Cl)cc3[nH]ncc3c1-2 (single isomer, unassigned)	log10 of IC50	3.57
O[C@@H]1C[C@@H]2COCCCCc3c(Cl)cc4[nH]ncc4c3-c3ncc4c(nc(OC[C@@]56CCCN5C[C@H](F)C6)nc4c3F)N(C1)C2 (single isomer, unassigned)	log10 of IC50	1.32
CC12COCCN(C1)c1nc(OC[C@@]34CCCN3C[C@H](F)C4)nc3c(F)c(ncc13)-c1c(c(Cl)cc3[nH]ncc13)CCCc1nc2no1 (mixture of isomers)	log10 of IC50	0.95

Asked: Reported log10 of IC50 for His-tagged KRAS G12D protein (Homo sapiens, UniProt P01116, G12D), given O[C@H]1C[C@@H]2CN(C1)c1nc(OC[C@@]34CCCN3C[C@H](F)C4)nc3c(F)c(ncc13)-c1c(c(Cl)cc3[nH]ncc13)CCCc1nc2no1 (racemic) ?
Given back: 0.70

Asked: Reported log10 of IC50 for His-tagged KRAS G12D protein (Homo sapiens, UniProt P01116, G12D), given Fc1c2ncc3c(nc(OC[C@@]45CCCN4C[C@H](F)C5)nc13)N1CCO[C@H](C1)c1coc(n1)CCCc1c(Cl)cc3[nH]ncc3c1-2 (single isomer, unassigned) ?
Given back: 0.70

Asked: Reported log10 of IC50 for His-tagged KRAS G12D protein (Homo sapiens, UniProt P01116, G12D), given Fc1c2ncc3c(nc(OC[C@@]45CCCN4C[C@H](F)C5)nc13)N1CCCC[C@@](F)(COCCCCc3c(Cl)cc4[nH]ncc4c3-2)C1 (single isomer, unassigned) ?
Given back: 0.60

----------
Molecular target: His-tagged KRAS G12D protein (Homo sapiens, UniProt P01116, G12D)
Experiment: KRAS G12D TR-FRET Assay
Assay type: binding
Conditions: TR-FRET binding
Procedure: The His-tagged KRAS G12D protein (Amgen) was diluted to 20 nM in Assay Buffer (20 mM HEPES, pH 7.4, 10 mM MgCl2, 50 mM NaCl, 0.1% BSA, 0.01% Tween-20, 10 μM GDP) and 2 μL was added to the appropriate wells of the 384-well plate. The plate was incubated for 30 minutes at room temperature. Biotinylated KRPep-2d substrate (Amgen) was diluted to 20 nM in Assay Buffer and 2 μL was added to all wells and incubated for 1 hour at room temperature. […]
measured.metric: IC50 (nM)
Number in nM, nothing else.

Please review the following examples before continuing.
molecule	target.or.system	IC50 [nM]
C[C@@]12CCCCN(C1)c1nc(OC[C@@]34CCCN3C[C@H](F)C4)nc3c(F)c(ncc13)-c1c(c(Cl)cc3[nH]ncc13)CCCCC(=O)N2 (single isomer, unassigned)	His-tagged KRAS G12D protein (Homo sapiens, UniProt P01116, G12D)	5
C[C@]12CCCCN(C1)c1nc(OC[C@@]34CCCN3C[C@H](F)C4)nc3c(F)c(ncc13)-c1c(c(Cl)cc3[nH]ncc13)CCCCC(=O)N2 (single isomer, unassigned)	His-tagged KRAS G12D protein (Homo sapiens, UniProt P01116, G12D)	12700
CC1COC(=O)C[C@@H]2CCCN(C2)c2nc(OC[C@@]34CCCN3C[C@H](F)C4)nc3c(F)c(ncc23)-c2c(c(Cl)cc3[nH]ncc23)C1 (some centres unmarked)	His-tagged KRAS G12D protein (Homo sapiens, UniProt P01116, G12D)	4
O=C1OC/C=C\c2c(Cl)cc3[nH]ncc3c2-c2ncc3c(nc(OC[C@@]45CCCN4C[C@H](F)C5)nc3c2F)N2CCC[C@H](C2)O1 (single isomer, unassigned)	His-tagged KRAS G12D protein (Homo sapiens, UniProt P01116, G12D)	5

# evaluate next
Asked: # IC50 lookup, item CN1C(=O)COCC[C@@H]2CCc3cc4[nH]ncc4c(c32)-c2ncc3c(nc(OC[C@@]45CCCN4C[C@H](F)C5)nc3c2F)N2CCC[C@@H]1C2 (single isomer, unassigned)
Given back: 333

----------
biological target: His-tagged KRAS G12D protein (Homo sapiens, UniProt P01116, G12D); assay: KRAS G12D TR-FRET Assay; assay type: binding; settings: TR-FRET binding
measured.metric: pIC50
Note on pIC50: it is the negative log10 of concentration, concentration in mol/L.

Please review the following examples before continuing.
compound	target.or.system	numeric.result
O=C1N[C@@H]2CCCCN(C2)c2nc(OC[C@@]34CCCN3C[C@H](F)C4)nc3c(F)c(ncc23)-c2c3c(cc4[nH]ncc24)CC[C@@H]3CCO1 (single isomer, unassigned)	His-tagged KRAS G12D protein (Homo sapiens, UniProt P01116, G12D)	5.90
[2H]C([2H])([2H])[C@]12COCCN(C1)c1nc(OC[C@@]34CCCN3C[C@H](F)C4)nc3c(F)c(ncc13)-c1c(c(Cl)cc3[nH]ncc13)CCCOC(=O)O2 (single isomer, unassigned)	His-tagged KRAS G12D protein (Homo sapiens, UniProt P01116, G12D)	5.80

# evaluate next
Asked: # pIC50 lookup, item O=C1OCCCc2c(Cl)cc3[nH]ncc3c2-c2ncc3c(nc(OC[C@@]45CCCN4C[C@H](F)C5)nc3c2F)N2CCCC[C@](CF)(C2)O1 (single isomer, unassigned)
Given back: 8.40

----------
test system: AsPC-1 cells; test: AsPC-1 CTG Assay (CellTiter-Glo cell viability, 72 h); assay type: cell-based, human; details: Homo sapiens, ASPC1, 72 h, AsPC-1 cells, 72 h; first value of the cell; read-out: G12D/C/V Cell Proliferation CTG (72 h) AsPC-1
In this section, each of the molecules is paired with its reported IC50.
Number in nM, nothing else.

molecule	numeric.result
O[C@H]1C[C@@H]2CN(C1)c1nc(OC[C@@]34CCCN3C[C@H](F)C4)nc3c(F)c(ncc13)-c1c(c(Cl)cc3[nH]ncc13)CCCc1nc2no1 (racemic) [Example 377]	125

# evaluate next
Asked: # IC50 lookup, item O[C@H]1C[C@@H]2CN(C1)c1nc(OC[C@@]34CCCN3C[C@H](F)C4)nc3c(F)c(ncc13)-c1c(c(Cl)cc3[nH]ncc13)CCCc1nc2no1 [Example 378]
Given back: 782

----------
target: His-tagged KRAS G12D protein (Homo sapiens, UniProt P01116, G12D); assay: KRAS G12D TR-FRET Assay; format: binding; conditions: TR-FRET binding
measured.metric: pIC50
Note on pIC50: it is the negative log10 of concentration, concentration in mol/L.

Please review the following examples before continuing.
compound	target.or.system	pIC50
Cc1cc2[nH]ncc2c2c1CCCOC(=O)O[C@]1(C)COCCN(C1)c1nc(OC[C@@H]3CCCN3C)nc3c(F)c-2ncc13 (single isomer, unassigned)	His-tagged KRAS G12D protein (Homo sapiens, UniProt P01116, G12D)	8.10
CN1CCC[C@H]1COc1nc2c3cnc(c(F)c3n1)-c1c(c(Cl)cc3[nH]ncc13)CCCOC(=O)O[C@]1(C)COCCN2C1 (single isomer, unassigned)	His-tagged KRAS G12D protein (Homo sapiens, UniProt P01116, G12D)	8.22
Cc1cc2[nH]ncc2c2c1CCCCO[C@@H](C)[C@@H]1CN(CCO1)c1nc(OC[C@@]34CCCN3C[C@H](F)C4)nc3c(F)c-2ncc13 (single isomer, unassigned)	His-tagged KRAS G12D protein (Homo sapiens, UniProt P01116, G12D)	7.57

Asked: # pIC50 lookup, item CN1C(=O)COCC[C@H]2CCc3cc4[nH]ncc4c(c32)-c2ncc3c(nc(OC[C@@]45CCCN4C[C@H](F)C5)nc3c2F)N2CCC[C@@H]1C2 (single isomer, unassigned)
Given back: 4.71

Asked: # pIC50 lookup, item CN(C)CC1(COc2nc3c4cnc(c(F)c4n2)-c2c(c(Cl)cc4[nH]ncc24)CCCOC(=O)O[C@@]2(C)COCCN3C2)CC1 (single isomer, unassigned)
Given back: 5.49

----------
biological target: His-tagged KRAS G12D protein (Homo sapiens, UniProt P01116, G12D); assay: KRAS G12D TR-FRET Assay; type: binding; conditions: TR-FRET binding
In this section, each of the compounds is paired with its reported pIC50.
Note on pIC50: it is the negative log10 of concentration, concentration in mol/L.

Please review the following examples before continuing.
compound	target.or.system	pIC50
O=C1OCCc2c(Cl)cc3[nH]ncc3c2-c2ncc3c(nc(OC[C@@]45CCCN4C[C@H](F)C5)nc3c2F)N2CCC[C@]3(C2)C[C@H](C3)O1	His-tagged KRAS G12D protein (Homo sapiens, UniProt P01116, G12D)	6.50
O=C1OCCCc2c(Cl)cccc2-c2ncc3c(nc(OC[C@@]45CCCN4C[C@H](F)C5)nc3c2F)N2CCOC[C@H](C2)O1	His-tagged KRAS G12D protein (Homo sapiens, UniProt P01116, G12D)	7.92
Cc1cc2[nH]ncc2c2c1CCCOC(=O)N[C@]1(C)CCCCN(C1)c1nc(OC[C@@]34CCCN3C[C@H](F)C4)nc3c(F)c-2ncc13 (single isomer, unassigned)	His-tagged KRAS G12D protein (Homo sapiens, UniProt P01116, G12D)	8.40
Cc1cc2[nH]ncc2c2c1CCOC(=O)O[C@H]1C[C@]3(CCCN(C3)c3nc(OC[C@@H]4CCCN4C)nc4c(F)c-2ncc34)C1 (single isomer, unassigned)	His-tagged KRAS G12D protein (Homo sapiens, UniProt P01116, G12D)	8.40

Asked: # pIC50 lookup, item Fc1c2ncc3c(nc(OC[C@@]45CCCN4C[C@H](F)C5)nc13)N1CCC[C@@H](C1)c1coc(n1)CCCc1c(Cl)cc3[nH]ncc3c1-2 (single isomer, unassigned)
Given back: 6.23

Recorded values, source patent US20260174769A1.
